Origin of measurements: patent US20140127212A1

# Target system: T1, cynomolgus IgE (recombinant chimaeric D12 variable region and cynomolgus IgE constant region) (cynomolgus monkey (constant region); …)
# T1 construct: The entries may hold a leader peptide; also called cyno IgE; cynomolgus monkey IgE
# T1 sequence (heavy, as listed by the source limits assumed, chain 1 of 2): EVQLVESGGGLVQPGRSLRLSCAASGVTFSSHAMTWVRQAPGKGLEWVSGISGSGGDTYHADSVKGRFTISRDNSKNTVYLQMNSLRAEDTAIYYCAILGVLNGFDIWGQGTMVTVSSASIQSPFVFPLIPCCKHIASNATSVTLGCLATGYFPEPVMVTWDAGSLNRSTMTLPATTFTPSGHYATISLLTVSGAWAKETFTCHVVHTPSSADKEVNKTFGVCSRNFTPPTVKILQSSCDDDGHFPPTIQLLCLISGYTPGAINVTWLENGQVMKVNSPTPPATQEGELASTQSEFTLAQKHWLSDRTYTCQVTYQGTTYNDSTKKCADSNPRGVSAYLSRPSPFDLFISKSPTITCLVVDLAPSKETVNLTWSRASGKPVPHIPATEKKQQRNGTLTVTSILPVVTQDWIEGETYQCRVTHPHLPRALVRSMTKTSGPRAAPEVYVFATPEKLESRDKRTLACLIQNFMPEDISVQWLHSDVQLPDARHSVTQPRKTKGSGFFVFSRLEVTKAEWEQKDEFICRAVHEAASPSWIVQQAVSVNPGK
# T1 sequence (light, as listed by the source limits assumed, chain 2 of 2): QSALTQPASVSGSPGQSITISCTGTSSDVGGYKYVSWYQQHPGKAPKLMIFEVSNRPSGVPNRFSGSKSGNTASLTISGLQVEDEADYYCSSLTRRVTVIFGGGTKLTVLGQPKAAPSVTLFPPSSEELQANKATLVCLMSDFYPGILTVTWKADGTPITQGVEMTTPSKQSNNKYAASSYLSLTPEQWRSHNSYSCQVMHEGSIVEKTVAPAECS
# Test description: SPR BIAcore; IgG captured on protein G', IgE analyte, bivalent analyte fit; geomean
Give measured pKd for each item. Keep answers brief.
Hey, just a heads up that pKd is the negative log base 10 of the concentration in molar.

# return recorded pKd for entry Antibody 28 IgG (antibody, V domains shown, Whole human IgG (section 1.4, IgG1)) VH: QVQLVQSGAEVKKPGATVKLSCKVYGYIFTDYNIYWVRQAPGKGLEWMGLIDPDNGETFYAEKFQGRATMTADTSSDRAYMELTSLTFEDTATYYCATVMGKWIKGGYDYWGRGTLVTVSS VL: QSVLTQPPSVSGAPGQRVTISCTGSSSNIGAGYDVHWYQQLPGTAPKLLIYDNFNRPSGVPDRFSGSKSGTSASLAIIGLQTEDEADYYCQSYDSSSLHSPFGTGTKLTVL
8.14

# return recorded pKd for entry Antibody 23 IgG (antibody, V domains shown, Whole human IgG (section 1.4, IgG1)) VH: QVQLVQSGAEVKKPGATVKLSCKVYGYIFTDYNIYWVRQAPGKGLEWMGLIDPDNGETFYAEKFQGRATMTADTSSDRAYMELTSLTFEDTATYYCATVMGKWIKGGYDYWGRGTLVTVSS VL: QSVLTQPPSVSGAPGQRVTISCTGSSSNIGAGYDVHWYQQLPGTAPKLLIYDNFNRPSGVPDRFSGSKSGTSASLAIIGLQTEDEADYYCQSYDSHHLYSSFGTGTKLTVL
8.37

# return recorded pKd for entry Antibody 11 IgG (antibody, V domains shown, Whole human IgG (section 1.4, IgG1)) VH: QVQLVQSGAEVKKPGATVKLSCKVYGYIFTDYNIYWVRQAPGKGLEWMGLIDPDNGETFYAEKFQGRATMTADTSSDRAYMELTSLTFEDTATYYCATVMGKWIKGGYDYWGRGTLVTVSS VL: QSVLTQPPSVSGAPGQRVTISCTGSSSNIGAGYDVHWYQQLPGTAPKLLIYDNFNRPSGVPDRFSGSKSGTSASLAIIGLQTEDEADYYCQSYDSPTLTSPFGTGTKLTVL
8.03
